src = patent EP1057825A1

For each record, write down the corresponding activity at 6.25 µg/mL.
# Tested on: mouse bone marrow cells
# Test Protocol: Metabolism promoting action on mouse bone marrow cells (mitochondrial metabolism activity, MTT reduction method)
# Format: cell-based, BALB/c mouse
# Measurement Conditions: Mus musculus, Bone marrow cell, 120 h; Test compound concentration 6.25 µg/ml; 5 days; magnitude of metabolism, no test compound = one
# From the text: The presence of an immunoactivating action can be determined if the magnitude of metabolism exceeds one, where the cellular metabolism of cells not having test compounds added thereto is defined as one.
Answers are plain numbers, in %.

// solved cases for activity at 6.25 µg/mL follow
{"Compound": "COc1ccc(C2COc3cc(OC)c(CC=C(C)C)c(OC)c3C2)c(OC)c1CC=C(C)C (centres unmarked) [A-3]", "Units Of Measure": "%", "activity at 6.25 µg/mL": 111}
{"Compound": "COc1cc(OC)c2c(c1)OCC(c1ccc(O)c(CC=C(C)C)c1O)C2 (centres unmarked) [B-4]", "Units Of Measure": "%", "activity at 6.25 µg/mL": 258}
{"Compound": "COc1c(CCC(C)C)c(O)cc2c1CC(c1ccc(OC(C)C)c(CCC(C)C)c1OC(C)C)CO2 (centres unmarked) [A-20]", "Units Of Measure": "%", "activity at 6.25 µg/mL": 116}
{"Compound": "COc1ccc(C2COc3cc(OC)c(CC=C(C)C)c(OC)c3C2)c(O)c1CC=C(C)C (centres unmarked) [A-4]", "Units Of Measure": "%", "activity at 6.25 µg/mL": 133}

Lab note: next compound to report on.
stdin: Which activity at 6.25 µg/mL value belongs to COc1c2c(cc(OC(C)C)c1CCC(C)C)OCC(c1ccc(O)c(CCC(C)C)c1O)C2 (centres unmarked) [A-19] ?
stdout: 126

* * *

# Tested on: mouse spleen cells
# Test Protocol: Action on the blastogenesis of mouse spleen cells (ConA-stimulated, MTT reduction method)
# Format: cell-based, BALB/c mouse
# Measurement Conditions: Mus musculus, 72 h; concentration of additions in medium 1.56 μg/ml; ConA 1 µg/ml, 3 days; rate against no test compound = one
Answer each item with its documented activity at 1.56 µg/mL.
One number for each entry, in %.

{"Compound": "COc1ccc(C2COc3cc(OC)c(CC=C(C)C)c(OC)c3C2)c(O)c1CC=C(C)C (stereo not shown)", "Units Of Measure": "%", "activity at 1.56 µg/mL": 155}

For each of the compounds below, state activity at 1.56 µg/mL.
1. COc1c(CC=C(C)C)c(O)cc2c1CC(c1ccc(O)c(CC=C(C)C)c1O)CO2 (stereo not shown)
2. COc1ccc(C2COc3cc(OC)c(CC=C(C)C)c(OC)c3C2)c(OC)c1CC=C(C)C (stereo not shown)
3. COc1ccc(C2COc3cc(O)c(CC=C(C)C)c(OC)c3C2)c(O)c1CC=C(C)C (stereo not shown)
4. COc1cc2c(c(OC)c1CC=C(C)C)CC(c1ccc(O)c(CC=C(C)C)c1OC)CO2 (stereo not shown)

stdout:
188
83
195
118

Here are 2 compounds. What values of activity at 1.56 µg/mL were reported for them?
1. COc1cc2c(c(OC)c1CC=C(C)C)CC(c1ccc(O)c(CC=C(C)C)c1O)CO2 (stereo not shown)
2. COc1c(C2COc3cc(O)c(CC=C(C)C)c(OC)c3C2)ccc(O)c1CC=C(C)C (stereo not shown)

stdout:
[234, 103]
